Measurement Label: O2 permeability (Barrer)

Solved entries:
*c1ccc(Oc2ccc(-c3cccc(-c4ccc(Oc5ccc(N6C(=O)c7ccc(C(c8ccc9c(c8)C(=O)N(*)C9=O)(C(F)(F)F)C(F)(F)F)cc7C6=O)cc5)c(C(F)(F)F)c4)n3)cc2C(F)(F)F)cc1 (repeat unit) | 12.2
*c1cccc(-c2nc3cc(-c4ccc5[nH]c(*)nc5c4)ccc3[nH]2)n1 (repeat unit) | 0.045
*Oc1ccc(C(C)(C)c2ccc(OC(=O)c3cccc(C(*)=O)c3)c(C)c2)cc1C (repeat unit) | 0.4
*CC(*)c1ccncc1 (repeat unit) | 0.84
*c1ccc(Oc2ccc(Oc3ccc(*)cc3)c3c2C2c4ccccc4C3c3ccccc32)cc1 (repeat unit) | 3.4
*CC(*)(C)C#N (repeat unit) | 0.0012
*Oc1ccc(Oc2ccc3c(c2)-c2nc4cc(Oc5ccc6nc7n(c6c5)C(=O)c5cc(*)ccc5-7)ccc4n2C3=O)cc1 (repeat unit) | 0.23
*C(=C(*)c1ccc2c(ccc3ccccc32)c1)c1ccc([Si](C)(C)C)cc1 (repeat unit) | 460

1. *Oc1cc2c(cc1O*)C1(c3ccccc3-c3cc4c(cc31)Oc1c(C#N)c(*)c(*)c(C#N)c1O4)c1cc(C)c(C)cc1-2 (repeat unit)
2. *Nc1c(C)cc(Cc2cc(C)c(NC(=O)c3ccc(Oc4cc(C(C)(C)C)c(Oc5ccc(C(*)=O)cc5)cc4C(C)(C)C)cc3)c(C(C)C)c2)cc1C(C)C (repeat unit)
Query string: Parameter check: reported O2 permeability is higher for which label, 1 or 2 ? # respond with the chosen item's label
Result string: 1

I. *c1cc(CCCCCCCCCCCC)c(*)s1 (repeat unit)
II. *C(C(=O)OC(C)CC(C)C)C(*)C(=O)OC(C)(C)C (repeat unit)
Query string: # return whichever of I and II has the smaller O2 permeability # respond with the chosen item's label
Result string: I
(I: 20.2 Barrer, II: 49 Barrer)

I. *C(=C(*)c1ccc(C(C)(C)C)cc1)c1ccccc1 (repeat unit)
II. *Oc1ccc(S(=O)(=O)c2ccc(Oc3ccc(C4(c5ccc(*)c(C)c5)CCCCC4)cc3C)cc2)cc1 (repeat unit)
Query string: # return whichever of I and II has the smaller O2 permeability # respond with the chosen item's label
Result string: II
(II: 0.41 Barrer, I: 1710 Barrer)

The origin of these recorded values is a polymer gas permeability compilation.
